# Run description: yeast display, Sf9 membrane polyspecificity reagent, FACS + sequencing; frameworks hold sequencing errors
Value kind: polyreactivity (PSR sort gate)

A selection of reference data follows.
Query sequence	Result
QVQLVESAGGLVQAGGSLRLSCAASGTILWWNAMGRYRPAPGKERELVADITSDGTYADSVKGRFTISRDNAKNTVYLQMNSLKPEDTAVYYCAAVDAYGPGLNGYDYWGQGTQVTVSS	low polyreactivity
QVQLVESGGGLVQAGGSLRLSCAASGNIFRNNAMGWYRQAPGKERELVAAISRGGSTYYADSVKGRFTISRDNAKNTVYLQMNSLKPEDTAVYYCNKYSSRAYNYWGQGTHVTVSS	high polyreactivity
QVQLVESGGGLVQAGGSLRLSCAASGSTFFPNAMGWYRQAPGKERELVAAIRWRGGTYYADSVKVRFTISRDNAKNTVYLQMNSLKPEDTAVYYCATSVKPSYDYWGQGTQVTVSS	low polyreactivity
QVQLVESGGGLVHAGGSLSLSCAASGPIFGSYGMGWYRQAPGKERELVAAISYSGGRTFYADSVKGRFTISRDNAKNNVYLQMNSLKPEDTAVYYCNKRYIPSYMSHLDYWGQGTQVTVSS	high polyreactivity
QVQLVESGGGLVQAGGSLRLSCAASGRTLIVNTMGWYRQAPGKEREFVAAIFSGASTYYADSVKGRFTISRDNAMNTDYLQINSVKPEDTAVYYCAAAVFRWSRYDYWGQGTQVTVSS	low polyreactivity

Please turn your attention to the following entry.
For this sequence ( `QVQLVESGGGLDQAGGSLRLSCAASGSTFNSYAMGWYRQAPGKERELVAAITSSVGSTYYADSVKGRFTISRDNAKNTVYLQMNSLKPEDTAVYYCAADYFSYWYFSGYDYWGQGTQVTVSS` ), measured polyreactivity (PSR sort gate) is low polyreactivity
